# Assay Protocol: Dynamic light scattering of lipid nanoparticles (size, PDI)
# Type: physicochemical
# Condition Set: LNP with cationic lipid CL-A
Readout Type: Polydispersity Index (PDI)

[
  {
    "Compound": "CCCCCCCCC(CCCCCCCC)OC(=O)CCCCCC(=O)OCC(COP(=O)(O)OCCN(C)C)OC(=O)CCCCCC(=O)OC(CCCCCCCC)CCCCCCCC (stereo not drawn) [Compound 15]",
    "Reported Value": 0.083
  },
  {
    "Compound": "CCCCCCCCC(CCCCC)COC(=O)CCC(=O)OCC(COP(=O)(O)OCCN)OC(=O)CCC(=O)OCC(CCCCC)CCCCCCCC (stereo not drawn) [Compound 5]",
    "Reported Value": 0.106
  },
  {
    "Compound": "CCCCCCCCC(CCCCCCCC)OC(=O)CCCCCCC(=O)OC[C@H](COP(=O)(O)OCCN(C)C)OC(=O)CCCCCCC(=O)OC(CCCCCCCC)CCCCCCCC [Compound 14]",
    "Reported Value": 0.068
  }
]

a = CCCCCCCCC(CCCCCCCC)OC(=O)CCCCCCCC(=O)OCC(COP(=O)(O)OCCN(C)C)OC(=O)CCCCCCCC(=O)OC(CCCCCCCC)CCCCCCCC (stereo not drawn) [Compound 16]
b = CCCCCCCCC(CCCCCCCC)OC(=O)CCCCCCC(=O)OCC(COP(=O)(O)OCCN(C)CCO)OC(=O)CCCCCCC(=O)OC(CCCCCCCC)CCCCCCCC (stereo not drawn) [Compound 25]
c = CC(C)CCCCOC(=O)CCCCCCC(=O)OCC(COP(=O)(O)OCCN)OC(=O)CCCCCCC(=O)OCCCCC(C)C (stereo not drawn) [Compound 2]
Hello, I need these entries ordered by Polydispersity Index (PDI), highest reading first. Thanks! Returns: the labels arranged in the requested order.
b, a, c
(b: 0.121, a: 0.052, c: 0.031)

---

# Assay Protocol: Dynamic light scattering of lipid nanoparticles (size, PDI)
# Type: physicochemical
# Condition Set: LNP with cationic lipid CL-A
Readout Type: Polydispersity Index (PDI)

[
  {
    "Molecule": "CCCCCCCCOC(=O)CCCCCCCC(=O)OC(COC(=O)CCCCCCC(=O)OC(CCCCCCCC)CCCCCCCC)COP(=O)(O)OCCN(C)C (stereo not drawn) [Compound 11]",
    "Polydispersity Index (PDI)": 0.068
  }
]

1 = CCCCCCCCCC(CCCCCCCCC)C(=O)OCC(COP(=O)(O)OCCN(C)C)OC(=O)C(CCCCCCCCC)CCCCCCCCC (stereo not drawn) [Compound 9]
2 = CCCCCCCCC(CCCCCCCC)OC(=O)CCCCCCC(=O)OC[C@@H](COP(=O)(O)OCCN(C)C)OC(=O)CCCCCCC(=O)OC(CCCCCCCC)CCCCCCCC [Compound 13]
API: POST /compare with 1 and 2 ; response names the item with higher Polydispersity Index (PDI). # respond with the chosen item's label
1
(1: 0.126, 2: 0.048)

---

# Assay Protocol: Dynamic light scattering of lipid nanoparticles (size, PDI)
# Format: physicochemical
# Condition Set: LNP with cationic lipid CL-A; hEPO mRNA; 40:30:28.5:1.5
Readout Type: Size (nm)

[
  {
    "Molecule": "CCCCCCCCCC(CCCCCCCCC)C(=O)OCC(COP(=O)(O)OCCN(C)C)OC(=O)C(CCCCCCCCC)CCCCCCCCC (centres unmarked)",
    "Units Symbol": "nm",
    "Reported Value": 112
  },
  {
    "Molecule": "CCCCCCCCOC(=O)CCCCCCCC(=O)OCC(COP(=O)(O)OCCN(C)C)OC(=O)CCCCCCCC(=O)OCCCCCCCC (centres unmarked)",
    "Units Symbol": "nm",
    "Reported Value": 120
  },
  {
    "Molecule": "CCCCCCCCC(CCCCCCCC)OC(=O)CCCCCCCC(=O)OCC(COP(=O)(O)OCCN(C)C)OC(=O)CCCCCCCC(=O)OC(CCCCCCCC)CCCCCCCC (centres unmarked)",
    "Units Symbol": "nm",
    "Reported Value": 128
  },
  {
    "Molecule": "CCCCCCCCC(CCCCCCCC)OC(=O)CCCCCC(=O)OCC(COP(=O)(O)OCCN(C)C)OC(=O)CCCCCC(=O)OC(CCCCCCCC)CCCCCCCC (centres unmarked)",
    "Units Symbol": "nm",
    "Reported Value": 138
  },
  {
    "Molecule": "CCCCCCCCC(CCCCCCCC)OC(=O)CCCCCCC(=O)OC[C@@H](COP(=O)(O)OCCN(C)C)OC(=O)CCCCCCC(=O)OC(CCCCCCCC)CCCCCCCC",
    "Units Symbol": "nm",
    "Reported Value": 166
  },
  {
    "Molecule": "CCCCCCCCC(CCCCCCCC)OC(=O)CCCCCCC(=O)OCC(COP(=O)(O)OCCN(C)CCCO)OC(=O)CCCCCCC(=O)OC(CCCCCCCC)CCCCCCCC (centres unmarked)",
    "Units Symbol": "nm",
    "Reported Value": 153
  },
  {
    "Molecule": "CCCCCCCCC(CCCCCCCC)OC(=O)CCCCCCC(=O)OC[C@H](COP(=O)(O)OCCN(C)C)OC(=O)CCCCCCC(=O)OC(CCCCCCCC)CCCCCCCC",
    "Units Symbol": "nm",
    "Reported Value": 148
  },
  {
    "Molecule": "CCCCCCCCCCC(CCCCCCCCCC)OC(=O)CCCCCCC(=O)OCC(COP(=O)(O)OCCN(C)C)OC(=O)CCCCCCC(=O)OC(CCCCCCCCCC)CCCCCCCCCC (centres unmarked)",
    "Units Symbol": "nm",
    "Reported Value": 136
  }
]

---

# Assay Protocol: mRNA encapsulation efficiency of lipid nanoparticles
# Format: physicochemical
# Condition Set: LNP with cationic lipid CL-C
Readout Type: EE (%)

[
  {
    "Molecule": "CCCCCCCCC(CCCCCCCC)OC(=O)CCCCCCCC(=O)OCC(COP(=O)(O)OCCN(C)C)OC(=O)CCCCCCCC(=O)OC(CCCCCCCC)CCCCCCCC (stereo not drawn)",
    "Readout Type": "EE",
    "Reported Value": 91
  },
  {
    "Molecule": "CCCCCCCCC(CCCCCCCC)OC(=O)CCCCCCC(=O)OC[C@H](COP(=O)(O)OCCN(C)C)OC(=O)CCCCCCC(=O)OC(CCCCCCCC)CCCCCCCC",
    "Readout Type": "EE",
    "Reported Value": 91
  },
  {
    "Molecule": "CCCCCCCCC(CCCCCCCC)C(=O)OCCCCCCC(=O)OCC(COP(=O)(O)OCCN(C)C)OC(=O)CCCCCCOC(=O)C(CCCCCCCC)CCCCCCCC (stereo not drawn)",
    "Readout Type": "EE",
    "Reported Value": 89
  }
]

---

# Assay Protocol: Dynamic light scattering of lipid nanoparticles (size, PDI)
# Format: physicochemical
# Condition Set: LNP with cationic lipid CL-C
Readout Type: Size (nm)

[
  {
    "Molecule": "CCCCCCCCCC(CCCCCCCCC)C(=O)OCC(COP(=O)(O)OCCN)OC(=O)C(CCCCCCCCC)CCCCCCCCC (stereo not drawn)",
    "Units Symbol": "nm",
    "Reported Value": 111.9
  },
  {
    "Molecule": "CCCCCCCCC(CCCCCCCC)C(=O)OCCCCCCC(=O)OCC(COP(=O)(O)OCCN(C)C)OC(=O)CCCCCCOC(=O)C(CCCCCCCC)CCCCCCCC (stereo not drawn)",
    "Units Symbol": "nm",
    "Reported Value": 117.5
  },
  {
    "Molecule": "CCCCCCCCOC(=O)CCCCCCCC(=O)OCC(COP(=O)(O)OCCN(C)C)OC(=O)CCCCCCCC(=O)OCCCCCCCC (stereo not drawn)",
    "Units Symbol": "nm",
    "Reported Value": 87.4
  }
]

---

# Assay Protocol: mRNA encapsulation efficiency of lipid nanoparticles
# Format: physicochemical
# Condition Set: LNP with cationic lipid CL-B
Readout Type: EE (%)

// below: answered compounds
[
  {
    "Compound": "CCCCCCCCC(CCCCCCCC)OC(=O)CCCCCCC(=O)OC[C@H](COP(=O)(O)OCCN(C)C)OC(=O)CCCCCCC(=O)OC(CCCCCCCC)CCCCCCCC [Compound 14]",
    "Readout Type": "EE",
    "Reported Value": 92
  },
  {
    "Compound": "CC(C)CCCCOC(=O)CCCCCCC(=O)OCC(COP(=O)(O)OCCN)OC(=O)CCCCCCC(=O)OCCCCC(C)C (stereo not drawn) [Compound 2]",
    "Readout Type": "EE",
    "Reported Value": 37
  },
  {
    "Compound": "CCCCCCCCC(CCCCCCCC)OC(=O)CCCCCCC(=O)OCC(COP(=O)(O)OCCN(C)CCCO)OC(=O)CCCCCCC(=O)OC(CCCCCCCC)CCCCCCCC (stereo not drawn) [Compound 27]",
    "Readout Type": "EE",
    "Reported Value": 98
  },
  {
    "Compound": "CCCCCCCCCC(CCCCCCCCC)C(=O)OCC(COP(=O)(O)OCCN(C)C)OC(=O)C(CCCCCCCCC)CCCCCCCCC (stereo not drawn) [Compound 9]",
    "Readout Type": "EE",
    "Reported Value": 78
  }
]

I = CCCCCCCCC(CCCCC)COC(=O)CCC(=O)OCC(COP(=O)(O)OCCN)OC(=O)CCC(=O)OCC(CCCCC)CCCCCCCC (stereo not drawn) [Compound 4]
II = CC(C)CCCCOC(=O)CCCCCCC(=O)OCC(COP(=O)(O)OCCN(C)C)OC(=O)CCCCCCC(=O)OCCCCC(C)C (stereo not drawn) [Compound 8]
// pick min by EE: I , II # respond with the chosen item's label
II
